Source of measurements: PubChem BioAssay AID485273

Listed next: entries and their corresponding inhibition.
# Tested On: Ubiquitin-conjugating enzyme E2 N (Homo sapiens)
# Experiment: UBC13 polyubiquitin chain formation inhibitors, primary screen, biochemical, TR-FRET, uHTS (AID 485273)
# Condition Description: at 20 µM, hits give high values
Screen size: about 330,000 compounds; about 1,500 (0.45%) were called active. The full list was thinned out, with actives kept by preference.
Just the number in %, nothing appended.

Request: Supply measured inhibition of CCN(CC)C(=O)N(CC)Cc1ccccc1 in your reply.
Response: 6.4

Request: Supply measured inhibition of O=C(c1ccccc1)N1CCC(CC2CC(c3ccc(Cl)cc3)=NO2)(C(=O)NCC2CCCCC2)CC1 (centres undefined) in your reply.
Response: 4.7

Request: Supply measured inhibition of Cc1nn(CCCC(=O)NCc2ccccc2Cl)c(=O)c2nccn12 in your reply.
Response: -2.4

---

Listed next: entries and their corresponding inhibition.
# Tested On: Ubiquitin-conjugating enzyme E2 N (Homo sapiens)
# Experiment: UBC13 polyubiquitin chain formation inhibitors, primary screen, biochemical, TR-FRET, uHTS (AID 485273)
# Condition Description: at 20 µM, hits give high values
Screen size: about 330,000 compounds; about 1,500 (0.45%) were called active. The entries come from a sample that favours actives as a whole.

Field: example entries. Status: answers known.
Request: Supply measured inhibition of CCc1ccc(NC(=O)C(C)OC(=O)/C=C/c2cccc([N+](=O)[O-])c2)cc1 (stereo unspecified) in your reply.
Response: -15.4% (inactive)

Request: Supply measured inhibition of O=C(CCn1c(=O)oc2ccccc21)Nc1ccon1 in your reply.
Response: -0.5% (inactive)

Request: Supply measured inhibition of O=C(Nc1ccccc1N1CCOCC1)c1ccc(OCc2cscn2)cc1 in your reply.
Response: 0.6% (inactive)

Request: Supply measured inhibition of COc1ccc(-n2nnnc2CNC(=O)c2ccc3ccccc3c2)cc1 in your reply.
Response: -2.4% (inactive)

Request: Supply measured inhibition of CC1(C)CC(=O)c2sc(N)nc2C1 in your reply.
Response: -5.4% (inactive)

More entries:
Request: Supply measured inhibition of COc1ccc(NC2=CC(=S)NC(C)(C)C2)cc1 in your reply.
Response: -9.8% (inactive)

Request: Supply measured inhibition of O=C(c1ccc(F)cc1)N1CCC(C(=O)N2CCN(S(=O)(=O)c3ccccc3Br)CC2)CC1 in your reply.
Response: 13.6% (inactive)

Request: Supply measured inhibition of CCn1c(SCc2cc(=O)n3ccsc3n2)nc2ccccc21 in your reply.
Response: 3% (inactive)

Request: Supply measured inhibition of COCCCNC(=O)CC1C[C@H](C(=O)N2CCCCC2)[C@@]2(CCc3ccccc3)c3[nH]c4ccccc4c3CCN2C1=O (stereo partly specified) in your reply.
Response: 14% (inactive)

Request: Supply measured inhibition of Cc1cc(C)nc(N2C(=O)CC(Cc3ccccc3)C2=O)n1 (stereo unspecified) in your reply.
Response: -12.4% (inactive)

Request: Supply measured inhibition of CCN(CC(=O)Nc1cc(Cl)ccc1C)C(=O)CSCc1ccc(C)cc1 in your reply.
Response: 0.3% (inactive)

---

# Tested On: Ubiquitin-conjugating enzyme E2 N (Homo sapiens) (UniProt P61088)
# Sequence (P61088 whole entry, looked up): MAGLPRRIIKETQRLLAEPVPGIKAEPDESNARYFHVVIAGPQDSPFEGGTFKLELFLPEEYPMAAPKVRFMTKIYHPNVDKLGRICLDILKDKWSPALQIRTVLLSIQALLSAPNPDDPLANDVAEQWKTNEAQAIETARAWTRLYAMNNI
# Experiment: UBC13 polyubiquitin chain formation inhibitors, primary screen, biochemical, TR-FRET, uHTS (AID 485273)
# Condition Description: at 20 µM, hits give high values
The campaign covered roughly 330,000 compounds. About 1,500 (0.45%) were called active. What follows is part of a selection rich in actives, with near analogues and random picks from the rest.
Readout Type: inhibition (%)
Just the number in %, nothing appended.

Request: Give inhibition for this entry on Ubiquitin-conjugating enzyme E2 N (Homo sapiens) (UniProt P61088): NC(N)=N/N=C/c1ccc(OCc2ccc(Cl)cc2Cl)cc1
Response: 108

Request: Give inhibition for this entry on Ubiquitin-conjugating enzyme E2 N (Homo sapiens) (UniProt P61088): FC(F)Oc1ccccc1C1CC(c2ccc(Br)s2)Nc2ncnn21 (centres undefined)
Response: -2.2

Request: Give inhibition for this entry on Ubiquitin-conjugating enzyme E2 N (Homo sapiens) (UniProt P61088): Cn1c(SCC(=O)c2ccccc2)ncc(C(=O)Nc2ccc(F)cc2)c1=O
Response: 36.4

Request: Give inhibition for this entry on Ubiquitin-conjugating enzyme E2 N (Homo sapiens) (UniProt P61088): CCc1ccc(NC(=O)N[C@H](C(=O)O)C(C)CC)cc1 (some centres undefined)
Response: 10

Request: Give inhibition for this entry on Ubiquitin-conjugating enzyme E2 N (Homo sapiens) (UniProt P61088): O=C(CCN1C(=O)C2CCCCC2C1=O)Nc1ccc(OC(F)F)cc1 (centres undefined)
Response: 1.3

More entries:
Request: Give inhibition for this entry on Ubiquitin-conjugating enzyme E2 N (Homo sapiens) (UniProt P61088): CC(=O)NC(Cc1ccc(F)c(F)c1)C(=O)NC1CCN(c2nnnn2-c2ccccc2)CC1 (centres undefined)
Response: -5.3

Request: Give inhibition for this entry on Ubiquitin-conjugating enzyme E2 N (Homo sapiens) (UniProt P61088): CNC(=S)NNC(=O)c1ccc(N(C)C)cc1
Response: -10.9

Request: Give inhibition for this entry on Ubiquitin-conjugating enzyme E2 N (Homo sapiens) (UniProt P61088): C#CCOCCOCCOCCNc1nc(N2CCN(C(=O)[C@H](CCCCN)n3cc([C@@H](N)C(C)CC)nn3)CC2)nc(N2CCN(C(=O)[C@H](Cc3ccc(O)cc3)n3cc([C@@H](N)C(C)CC)nn3)CC2)n1 (some centres undefined)
Response: 95.9

Request: Give inhibition for this entry on Ubiquitin-conjugating enzyme E2 N (Homo sapiens) (UniProt P61088): C[C@@H](CN1CCC[C@H]1CN1C(N)=NC[C@@H]1Cc1ccccc1)N1C[C@@H](Cc2ccccc2)N(CCCC2CCCC2)C1=N
Response: 62.2

Request: Give inhibition for this entry on Ubiquitin-conjugating enzyme E2 N (Homo sapiens) (UniProt P61088): CC(C)(C)Oc1ccccc1Nc1nc(NCCO)nc(N2CCCC2)n1
Response: 8.7

Request: Give inhibition for this entry on Ubiquitin-conjugating enzyme E2 N (Homo sapiens) (UniProt P61088): Cc1cccc(Nc2nc(NCCO)nc(N3CCCC3)n2)c1
Response: 11.1

Request: Give inhibition for this entry on Ubiquitin-conjugating enzyme E2 N (Homo sapiens) (UniProt P61088): CCCC[C@@H]1CN=C(N)N1CCc1cc(C(F)(F)F)cc(C(F)(F)F)c1
Response: 66.9

Request: Give inhibition for this entry on Ubiquitin-conjugating enzyme E2 N (Homo sapiens) (UniProt P61088): O=C(CCCCCn1c(=O)[nH]c2ccccc2c1=O)NCCc1c[nH]c2ccccc12
Response: 58.3

---

# Tested On: Ubiquitin-conjugating enzyme E2 N (Homo sapiens)
# Experiment: UBC13 polyubiquitin chain formation inhibitors, primary screen, biochemical, TR-FRET, uHTS (AID 485273)
# Condition Description: at 20 µM, hits give high values
The campaign covered roughly 330,000 compounds. About 1,500 (0.45%) were called active. The list comes from a sample in which actives are over-represented; it also holds close analogues and randomly drawn compounds.
Listed next: entries and their corresponding inhibition.
Just the number in %, nothing appended.

Request: Supply measured inhibition of O=[N+]([O-])c1cccc(S(=O)(=O)NCc2ccccn2)c1 in your reply.
Response: -12.9

Request: Supply measured inhibition of CN(C(=O)COC(=O)c1cc(=O)[nH]c2ccccc12)C1CCCCC1 in your reply.
Response: 5.6

Request: Supply measured inhibition of COc1ccc(C(=O)C2CCCN(S(=O)(=O)c3cccc(C)c3)C2)c(C)c1 (configuration not stated) in your reply.
Response: -4.5

Request: Supply measured inhibition of CN(C)C(=O)c1ccc2c(c1)C1C3CCC(C3)C1C(c1ccccc1)N2 (configuration not stated) in your reply.
Response: -13.6

Request: Supply measured inhibition of CN(c1ccccn1)c1ncnc2[nH]ncc12 in your reply.
Response: 5.9

Request: Supply measured inhibition of COc1cc(CNCc2ccc(OC)c3ccccc23)cc(OC)c1OC in your reply.
Response: 5.5

Request: Supply measured inhibition of CN(C)CCCN(C(=O)c1ccc(S(=O)(=O)N2CCCc3ccccc32)cc1)c1nc2ccc(F)cc2s1 in your reply.
Response: 37.2

Request: Supply measured inhibition of COc1cccc(CN(C)CC(O)COC(c2ccccc2)c2ccccc2C)c1 (configuration not stated) in your reply.
Response: 19.2

Request: Supply measured inhibition of O=C(N/N=C/c1ccccn1)c1ccc(S(=O)(=O)N2CCCCCC2)cc1 in your reply.
Response: -2.2

Request: Supply measured inhibition of Cc1ccc(NC(=O)c2cc([N+](=O)[O-])ccc2Cl)c(O)c1 in your reply.
Response: 2.4

More entries:
Request: Supply measured inhibition of O=c1cc(CO)oc(C(Nc2cccc(C(F)(F)F)c2)c2ccccn2)c1O (configuration not stated) in your reply.
Response: 97.1

Request: Supply measured inhibition of FC(F)(F)c1ccnc(Oc2ccc(C3=NCCS3)cc2)c1 in your reply.
Response: 7.6
